Data origin: PubChem BioAssay (NCI)

- Tested on: M14 melanoma
- Protocol Description: NCI-60 one-dose screen, 48 h
- Measurement Setup: 10 µM unless noted
- Description: Growth inhibition of the M14 human tumor cell line is measured as a screen for anti-cancer activity. Cells are grown in 96 well plates and exposed to the test compound for 48 hours. Compounds are tested at a single concentration, which is 10^-5 M for most compounds. The reported endpoint is percent growth (GI% or GIPRCNT), where numbers from 0 - 100% represent growth inhibition, and numbers from -100% - 0 represent cell death. For example, a value of 40 represents 60% growth inhibition. […]
About 83,000 compounds went through this panel and 20% of them were active in at least one assay; those are over-represented in the sample as a whole. Calls of active or inactive are those of the source. How the source made its calls: active means growth percent below 10; inactive means the rest.
Field 'call' accepts active, inactive

State the result this test recorded for COc1cccc(/C=C/C(=O)c2ccc(OC)c(S(N)(=O)=O)c2)c1 .
inactive

Each molecule tested received a call. Report the one for Cc1ccc(C2=NN(c3nc(-c4cc5ccccc5oc4=O)cs3)C(c3ccc(C)cc3)C2)cc1 (stereo not drawn) .
inactive

Could you please tell me the result logged for O=C(NN1C(=O)/C(=C/C=C/c2ccc([N+](=O)[O-])o2)SC1=S)c1ccccc1O in this assay?
active

----------
- Test system: RXF 393 renal
- Protocol Description: NCI-60 one-dose screen, 48 h
- Measurement Setup: 10 µM unless noted
Compounds without any hit were thinned out: in the full panel of roughly 83,000, 20% have a hit. Calls of active or inactive are those of the source. How the source made its calls: active means growth percent below 10; inactive means the rest.
Outcome field: choose from TRUE for active, FALSE for inactive

Molecule	Cat
CC1=C(C(=O)OC(C)C)C(c2cccc(O)c2)NC(=S)N1 (stereo not drawn)	FALSE
Nc1nnc(-c2c[nH]c3ccc(Br)cc23)c(-c2c[nH]c3ncc(Br)cc23)n1	TRUE

// outcome(item) with item = CC(=O)OC[C@@]1(C)C2CC[C@]3(C)C(CC=C4C5CC(C)(C)CC[C@]5(C(=O)Nc5ccc(C)cc5)CC[C@]43C)[C@@]2(C)C[C@@H](OC(C)=O)[C@@H]1OC(C)=O (stereo partly drawn)
FALSE

----------
- Tested on: CAKI-1 renal
- Protocol Description: NCI-60 one-dose screen, 48 h (100 = growth as untreated, 0 = no growth, -100 = all killed)
- Measurement Setup: 10 µM unless noted
This is part of a sample that, as a whole, favours compounds with a hit. Of some 83,000 tested, about 20% had one in any assay. Active and inactive are the calls of the source. How the source made its calls: active means growth percent below 10; inactive means the rest.
Measure Name: growth

Compound	growth
CC(=O)Nc1cccc(Nc2nccc(N[C@@H](C)c3ccccc3)n2)c1	29% (inactive)
O=C(COc1ccc(NC(=O)Nc2ccc(Cl)c(Cl)c2)cc1)N=Nc1c(O)[nH]c2ccccc12	15.6% (inactive)
COc1ccc2c(c1)C(=N/N=C(\C)c1ccc(OC)c(S(N)(=O)=O)c1)C(=O)N2	79.5% (inactive)
CCCCSc1nc(Nc2ccc(C(C)=O)cc2)c(C#N)c(-c2ccc(OC)cc2)n1	34% (inactive)
Cn1nc(C(F)(F)F)cc1-c1cc(Cl)c(COc2ccc(Cl)cc2)c(-c2ccc(Cl)c(C(F)(F)F)c2)c1O	-15.9% (active)

Need growth of C=C1CC[C@@H]2[C@]3(C)COC(c4cn[nH]c4-c4ccc(Br)cc4)O[C@@H]3CC[C@@]2(C)[C@@H]1C/C=C1/C(=O)OCC1O (stereo partly specified) , thanks.
-40.9% (active)

Looking for the measured growth of COc1cc2c(c(OC)c1OC)C(=O)CC(c1cccc(NC(=O)c3cccc(NC(=O)[C@H](C)NC(=O)OC(C)(C)C)c3)c1)O2 (stereo partly specified) , can you help?
42.2% (inactive)

I am curious: what growth value has been reported for Cc1ccc(C(SCCNCc2cc(N(C)C)ccn2)(c2ccccc2)c2ccccc2)cc1 ?
-10.4% (active)

# input compound: O=C(N=Nc1c(O)[nH]c2ccc(Cl)cc12)c1ccc2nc(-c3ccccc3)[nH]c2c1 ; wanted: its growth
89.3% (inactive)

# growth lookup, item COc1ccc(-c2ccc(SCC(=O)NCCc3ccc(S(N)(=O)=O)cc3)nn2)cc1
90.6% (inactive)

Suppose we examine the compound O=C1Nc2cc(Cl)ccc2/C1=C/c1cccc(OCc2ccccn2)c1 ; what growth value has been reported?
16.8% (inactive)

----------
- Tested on: UACC-257 melanoma
- Protocol Description: NCI-60 one-dose screen, 48 h (100 = growth as untreated, 0 = no growth, -100 = all killed)
- Measurement Setup: 10 µM unless noted
- Method: Cells are grown in 96 well plates and exposed to the test compound for 48 hours. Compounds are tested at a single concentration, which is 10^-5 M for most compounds. The reported endpoint is percent growth (GI% or GIPRCNT), where numbers from 0 - 100% represent growth inhibition, and numbers from -100% - 0 represent cell death. For example, a value of 40 represents 60% growth inhibition. A value of 0 means no net growth occurred over the course of the experiment. […]
Compounds without any hit were thinned out: in the full panel of roughly 83,000, 20% have a hit.
Measure Name: growth (%)
Answer in %, number only, no unit symbol.

Previously resolved entries follow.
Compound	Quantity Unit	growth
CN1CCN(Cc2ccc(C(=O)Nc3cccc(C#Cc4cccc5[nH]nc(N)c45)c3)cc2C(F)(F)F)CC1	%	-94.7
O=C(NNc1nc2cc(C(F)(F)F)ccc2n2cccc12)c1cnccn1	%	-83.9
O=C(Cn1c2c(sc1=O)[C@H]1[C@@H](O)[C@@H](O)[C@H](O)[C@@H]1CS2)N1CCOCC1	%	110

// below: growth requested for another compound
Could you tell me which growth is on file for COc1c(F)ccc(C(=O)Nc2ccc3nc(NC(=O)C4CCCN(S(=O)(=O)c5ccc(C#N)cc5)C4)sc3c2)c1F (centres undefined) ?
87.1

----------
- Test system: SK-OV-3 ovarian
- Protocol Description: NCI-60 one-dose screen, 48 h (100 = growth as untreated, 0 = no growth, -100 = all killed)
- Measurement Setup: 10 µM unless noted
This is part of a sample that, as a whole, favours compounds with a hit. Of some 83,000 tested, about 20% had one in any assay.
Measure Name: growth (%)
Number in %, nothing else.

As a guide, the following entries are already answered.
Compound	Assay Value
CCCSc1nc(NCCc2c[nH]c3ccccc23)c(C#N)c(-c2ccccc2)n1	91
O=C1Nc2ccc([N+](=O)[O-])cc2C1=Nc1ccccc1	113
C[C@H]1CN(C(=O)c2ccc3c(NNC(=O)c4ccncn4)nc4cc(F)c(F)cc4n23)CCN1	43.7

Look up growth: CC(=O)Nc1cccc(Nc2nccc(N[C@@H](C)c3ccccc3)n2)c1
38.9

Could you share which growth value was measured for O=C(O)c1ccc(-c2ccc(/C=N/NC(=O)c3[nH]c4ccc(Br)cc4c3-c3ccccc3)o2)cc1 ?
41.1

Data request, read-out growth, for O=c1onc(-c2cc3ccccc3nc2Cl)n1-c1cccc2ccccc12
34.4

Would you mind telling me what growth value was observed for Cc1cccc(Nc2nc3ccccc3nc2/C=C/c2ccc(F)cc2)c1 ?
105

Tell me the measured growth of CC1=C(C(=O)OCc2ccccc2)C(c2ccc(-n3cncn3)cc2)n2c(nc3ccccc32)N1 (stereo unspecified) , please.
73.8

Which measured growth value corresponds to S=c1c2ccccc2nc2n1CCc1c-2[nH]c2ccccc12 ?
42.2

Name the recorded growth for Cn1cc(-c2nc(N)nnc2-c2c[nH]c3ccc(F)cc23)c2cccnc21 .
41.3

What does the record list as growth for N#Cc1c(-c2ccc(Br)cc2)nc2n[nH]c(-c3ccc(Br)cc3)c2c1-c1ccc(F)cc1 ?
72.7

----------
- System: SNB-75 CNS
- Protocol Description: NCI-60 one-dose screen, 48 h (100 = growth as untreated, 0 = no growth, -100 = all killed)
- Measurement Setup: 10 µM unless noted
This is part of a sample that, as a whole, favours compounds with a hit. Of some 83,000 tested, about 20% had one in any assay.
Field: label. Allowed values: 1 (growth < 60%) or -1 (growth >= 60%).

Solved entries:
Compound	Cat
COc1cc2c(c(OC)c1OC)C(=O)CC(c1cccc(NC(=O)[C@@H](N)CC(C)C)c1)O2 (some centres not stated)	-1
COc1ccc(C(SCCNCc2cc(N(C)C)ccn2)(c2ccccc2)c2ccccc2)cc1	1

growth strictly < 60% for this compound? CC1=C(C(=O)OCc2ccccc2)C(c2c(O)cc(O)cc2O)n2c(nc3ccccc32)N1 (configuration not stated)
1

Determine if CC(=O)OC[C@@]1(C)C2CC[C@]3(C)C(CC=C4C5CC(C)(C)CC[C@]5(C(=O)Nc5ccc(Br)cc5)CC[C@]43C)[C@@]2(C)C[C@@H](OC(C)=O)[C@@H]1OC(C)=O (some centres not stated) shows growth strictly lower than 60%.
1

Lab note: confirm whether the reported growth for this compound is below 60%, equality not counting. compound: O=C(CSc1nc2ccccc2c(=O)[nH]1)NCCN1CCCCC1
-1

growth strictly < 60% for this compound? COc1ccc(C2(SCCNCc3cc(N(C)C)ccn3)c3ccccc3C=Cc3ccccc32)cc1
1

Is it true that growth reported for O=C(/C=C/c1cccc(OCc2ccc(F)cc2)c1)c1nc2ccccc2[nH]1 is less than 60%?
-1
